biological target: CB1 receptor (Homo sapiens); construct: expressed in transfected cells; host or cells: HEK293T cells (called 'HEK293 cells' in Results), calcium phosphate transfection, membrane preparation; experiment: Competitive [3H]CP55,940 radioligand binding, membrane from CB1 expressing HEK293 cells; conditions: competition with [3H]CP55,940; N.B. = no specific binding detected up to 10 μM of test compounds
Sequence (P21554 whole entry): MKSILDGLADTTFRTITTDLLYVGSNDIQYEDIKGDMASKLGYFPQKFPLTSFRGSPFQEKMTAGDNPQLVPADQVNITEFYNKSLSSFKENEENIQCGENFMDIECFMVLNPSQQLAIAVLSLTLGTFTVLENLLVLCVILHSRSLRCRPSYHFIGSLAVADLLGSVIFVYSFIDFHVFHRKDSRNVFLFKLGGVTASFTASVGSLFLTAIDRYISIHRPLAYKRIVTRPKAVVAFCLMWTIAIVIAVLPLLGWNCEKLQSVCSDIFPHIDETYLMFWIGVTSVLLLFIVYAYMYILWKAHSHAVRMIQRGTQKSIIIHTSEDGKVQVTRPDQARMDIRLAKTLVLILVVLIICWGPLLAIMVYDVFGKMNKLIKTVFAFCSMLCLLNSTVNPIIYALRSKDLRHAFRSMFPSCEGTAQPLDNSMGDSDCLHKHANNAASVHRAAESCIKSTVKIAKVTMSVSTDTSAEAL
property_measured: Ki

Supply reported Ki belonging to this compound: `CCOC(=O)c1ccccc1NC(=O)CN(c1cc(C)ccc1C)S(=O)(=O)c1ccccc1` > 1000 nM

* * *

Reported pKi values are given for each entry in this list.
target: CB2 (Homo sapiens); construct: expressed in transfected cells; host or cells: HEK293T cells, calcium phosphate transfection, membrane preparation; test: Competitive [3H]CP55,940 radioligand binding, CB2-transfected HEK293T cell membrane; settings: competition with [3H]CP55,940; mean ± S.D.
Sequence (P34972 whole entry): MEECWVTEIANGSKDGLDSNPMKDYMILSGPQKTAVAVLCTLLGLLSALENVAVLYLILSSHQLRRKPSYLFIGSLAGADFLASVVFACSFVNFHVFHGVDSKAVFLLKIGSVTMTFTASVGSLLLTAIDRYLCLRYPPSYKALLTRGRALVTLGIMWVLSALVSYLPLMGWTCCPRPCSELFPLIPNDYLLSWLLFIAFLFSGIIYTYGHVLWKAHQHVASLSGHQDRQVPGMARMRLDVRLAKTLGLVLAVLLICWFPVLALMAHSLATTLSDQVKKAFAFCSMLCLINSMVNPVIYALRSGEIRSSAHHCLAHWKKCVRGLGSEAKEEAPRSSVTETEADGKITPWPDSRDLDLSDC
API: returns pKi as number; meaning -log10 of concentration in mol/L.

Worked examples, 2 molecules total:
{"sample_smiles": "CCOC(=O)c1ccccc1NC(=O)CN(c1cc(C)ccc1C)S(=O)(=O)c1ccccc1", "pKi": 7.85}
{"sample_smiles": "CCOC(=O)c1ccccc1NC(=O)CN(c1ccc(C)cc1C)S(=O)(=O)c1ccccc1", "pKi": 7.55}

API: the following record is the query input.
Read off the recorded pKi for `CCOC(=O)c1ccccc1NC(=O)CN(c1c(C)cccc1C)S(=O)(=O)c1ccccc1` 7.16
